target: ΔF508-CFTR (Homo sapiens, UniProt P13569, DEL508-508); construct: host or cells: CFBE41o-, doxycycline-inducible; test: CFTR cell surface levels using HRP-tagged ΔF508-CFTR expressing CFBE cells, intrinsic corrector capacity; type: cell-based; parameters: concentration or dose not given beside the values; conditions: HRP-tagged ΔF508-CFTR expressing CFBE41o- cells; compound alone (intrinsic corrector capacity); 20 hours at 33° C.
Sequence (P13569 with tags, fused parts or gaps DEL508-508): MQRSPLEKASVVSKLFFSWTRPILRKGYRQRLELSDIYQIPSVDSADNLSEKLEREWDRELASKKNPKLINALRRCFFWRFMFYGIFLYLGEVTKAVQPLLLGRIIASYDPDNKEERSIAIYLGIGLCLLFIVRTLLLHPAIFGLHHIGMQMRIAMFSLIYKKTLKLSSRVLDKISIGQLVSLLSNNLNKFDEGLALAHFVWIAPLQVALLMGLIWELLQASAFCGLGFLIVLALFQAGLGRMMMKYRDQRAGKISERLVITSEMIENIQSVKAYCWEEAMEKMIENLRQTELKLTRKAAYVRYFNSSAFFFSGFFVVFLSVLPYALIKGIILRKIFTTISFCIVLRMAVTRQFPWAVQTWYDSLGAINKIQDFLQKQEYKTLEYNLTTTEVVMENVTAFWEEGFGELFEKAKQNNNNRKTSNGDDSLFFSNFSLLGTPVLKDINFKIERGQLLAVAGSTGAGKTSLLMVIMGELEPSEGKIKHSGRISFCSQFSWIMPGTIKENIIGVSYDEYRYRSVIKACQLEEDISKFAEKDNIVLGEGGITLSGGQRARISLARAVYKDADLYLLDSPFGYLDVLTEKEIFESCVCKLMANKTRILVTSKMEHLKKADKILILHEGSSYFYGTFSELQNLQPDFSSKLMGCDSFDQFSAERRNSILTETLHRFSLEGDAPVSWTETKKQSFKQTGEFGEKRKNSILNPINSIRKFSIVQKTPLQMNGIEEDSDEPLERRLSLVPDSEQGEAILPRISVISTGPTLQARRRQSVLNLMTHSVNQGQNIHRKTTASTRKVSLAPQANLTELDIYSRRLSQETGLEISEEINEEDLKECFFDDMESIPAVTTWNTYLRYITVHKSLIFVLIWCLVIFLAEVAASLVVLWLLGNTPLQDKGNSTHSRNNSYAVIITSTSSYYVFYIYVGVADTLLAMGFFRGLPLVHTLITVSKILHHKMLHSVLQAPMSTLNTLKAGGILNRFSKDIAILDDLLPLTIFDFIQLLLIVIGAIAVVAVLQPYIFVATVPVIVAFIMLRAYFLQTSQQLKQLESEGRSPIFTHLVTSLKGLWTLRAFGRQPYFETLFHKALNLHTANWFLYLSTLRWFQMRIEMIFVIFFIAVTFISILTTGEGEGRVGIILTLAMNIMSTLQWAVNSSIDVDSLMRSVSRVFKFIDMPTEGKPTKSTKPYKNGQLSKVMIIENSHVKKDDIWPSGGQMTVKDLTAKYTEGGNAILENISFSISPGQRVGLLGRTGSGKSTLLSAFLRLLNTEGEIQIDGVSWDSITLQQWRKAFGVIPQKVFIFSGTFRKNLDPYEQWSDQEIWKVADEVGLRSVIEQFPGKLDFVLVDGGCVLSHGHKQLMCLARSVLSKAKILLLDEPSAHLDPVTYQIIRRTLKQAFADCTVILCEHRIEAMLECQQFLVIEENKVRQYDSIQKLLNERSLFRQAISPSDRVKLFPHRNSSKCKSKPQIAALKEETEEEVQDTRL
% Activation reference

# molSmiles, targetDesc, % Activation, %
measured = [
    ("CS(=O)(=O)NC(=O)c1cc(-c2ccc(N3CCC(C#N)CC3)nc2)c2c(C3CCC3)nn(-c3ccnc(N4CCCC4)c3)c2n1", "ΔF508-CFTR (Homo sapiens, UniProt P13569, DEL508-508)", 236.2),
    ("CCS(=O)(=O)NC(=O)c1cc(-c2ccc(N3CCOCC3)cc2)c2c(C)nn(-c3ccc(OC(F)(F)F)cc3)c2n1", "ΔF508-CFTR (Homo sapiens, UniProt P13569, DEL508-508)", 167.8),
    ("O=C(NS(=O)(=O)CCCN1CCOCC1)c1cc(N2CCC(N3CCCCC3)CC2)c2c(C3CCC3)nn(-c3ccccc3)c2n1", "ΔF508-CFTR (Homo sapiens, UniProt P13569, DEL508-508)", 168.1),
    ("O=C(NS(=O)(=O)CCCN1CCOCC1)c1cc(OCC2CCOCC2)c2c(C3CCC3)nn(-c3ccccc3)c2n1", "ΔF508-CFTR (Homo sapiens, UniProt P13569, DEL508-508)", 131.4),
    ("O=C(NS(=O)(=O)CC(F)(F)F)c1cc(N2CCC(N3CCOCC3)CC2)c2c(C3CCC3)nn(-c3ccc(F)cc3)c2n1", "ΔF508-CFTR (Homo sapiens, UniProt P13569, DEL508-508)", 332.5),
    ("CC(C)Oc1nn(C2CCCCC2)c2nc(C(=O)NS(C)(=O)=O)cc(-c3ccc(C(=O)N4CCN(C)CC4)cc3)c12", "ΔF508-CFTR (Homo sapiens, UniProt P13569, DEL508-508)", 222.8),
    ("COCC1CCN(c2cc(C(=O)NS(=O)(=O)CCCO)nc3c2c(C2CCC2)nn3-c2ccc(F)cc2)CC1", "ΔF508-CFTR (Homo sapiens, UniProt P13569, DEL508-508)", 362.9),
]

----------
molecular target: CFTR ΔF508 (Homo sapiens, UniProt P13569, DEL508-508); construct: bronchial epithelial cells isolated from CF patients homozygous for the CFTR ΔF508 mutation; McGill University; Asterand; University of North Carolina hAEC-CF; host or cells: primary human bronchial epithelial cells from CF patients homozygous for ΔF508, differentiated at air-liquid interface; assay: Chronic TECC assay, primary bronchial epithelial cells of CF patients homozygous for CFTR ΔF508 (corrector, co-corrector and potentiator); type: cell-based; conditions: chronic TECC; test compound at 1 μM; AUC = full area under the curve upon forskolin stimulation
Sequence (P13569 with tags, fused parts or gaps DEL508-508): as above
% Activity at 1 μM (AUC**) reference
readoutName: % Activity at 1 μM (AUC**) (%)

# molecule, targetDesc, readoutName, measValue
records = [
    ("CCCOC1CCN(c2cc(C(=O)NS(C)(=O)=O)nc3c2c(C2CCC2)nn3-c2ccccc2)CC1", "CFTR ΔF508 (Homo sapiens, UniProt P13569, DEL508-508)", "% Activity at 1 μM (AUC**)", 482.77),
    ("CS(=O)(=O)NC(=O)c1cc(N2CCC(CO)CC2)c2c(C3CCC3)nn(-c3ccccc3)c2n1", "CFTR ΔF508 (Homo sapiens, UniProt P13569, DEL508-508)", "% Activity at 1 μM (AUC**)", 238.89),
    ("COC(=O)N1CCC(COc2cc(C(=O)NS(C)(=O)=O)nc3c2c(C(C)C)nn3-c2ccc(F)cc2)CC1", "CFTR ΔF508 (Homo sapiens, UniProt P13569, DEL508-508)", "% Activity at 1 μM (AUC**)", 440.86),
    ("COCC1CCN(c2cc(C(=O)NS(=O)(=O)CC3COCCO3)nc3c2c(C2CCC2)nn3-c2ccccc2)CC1 (stereo not shown)", "CFTR ΔF508 (Homo sapiens, UniProt P13569, DEL508-508)", "% Activity at 1 μM (AUC**)", 256.6667),
    ("CCOC(=O)N1CCN(c2cc(C(=O)NS(C)(=O)=O)nc3c2c(C(C)C)nn3-c2ccc(F)cc2)CC1", "CFTR ΔF508 (Homo sapiens, UniProt P13569, DEL508-508)", "% Activity at 1 μM (AUC**)", 299.50),
    ("COCCN1CCN(c2cc(C(=O)NS(C)(=O)=O)nc3c2c(C(C)C)nn3-c2ccc(F)cc2)CC1", "CFTR ΔF508 (Homo sapiens, UniProt P13569, DEL508-508)", "% Activity at 1 μM (AUC**)", 216.53),
    ("CS(=O)(=O)NC(=O)c1cc(N2CCC(OC3CCCC3)CC2)c2c(C3CCC3)nn(-c3ccccc3)c2n1", "CFTR ΔF508 (Homo sapiens, UniProt P13569, DEL508-508)", "% Activity at 1 μM (AUC**)", 240),
    ("O=C(NS(=O)(=O)CCO)c1cc(N2CCC(N3CCOCC3)CC2)c2c(C3CCC3)nn(-c3ccc(F)cc3)c2n1", "CFTR ΔF508 (Homo sapiens, UniProt P13569, DEL508-508)", "% Activity at 1 μM (AUC**)", 116.8948),
    ("CC(C)c1nn(-c2ccnc(N3CCOCC3)c2)c2nc(C(=O)NS(C)(=O)=O)cc(-c3ccc(N4CCOCC4)cc3)c12", "CFTR ΔF508 (Homo sapiens, UniProt P13569, DEL508-508)", "% Activity at 1 μM (AUC**)", 233.2),
    ("COCCN1CCN(c2ccc(-c3cc(C(=O)NS(=O)(=O)N(C)C)nc4c3c(C3CCC3)nn4C3CCCCC3)cn2)CC1", "CFTR ΔF508 (Homo sapiens, UniProt P13569, DEL508-508)", "% Activity at 1 μM (AUC**)", 235.2857),
]

----------
Target: ΔF508-CFTR (Homo sapiens, UniProt P13569, DEL508-508)
Construct: host or cells: CFBE41o-, doxycycline-inducible
Assay: CFTR cell surface levels using HRP-tagged ΔF508-CFTR expressing CFBE cells, in the presence of a co-corrector
Type: cell-based
Conditions: HRP-tagged ΔF508-CFTR CFBE cells, in the presence of 3 μM co-corrector; read-out: EC50
Source text: Measuring CFTR Cell Surface Levels Using HRP-Tagged ΔF508-CFTR Expressing CFBE Cells The HRP-tagged ΔF508-CFTR cell assay measures the expression of CFTR-ΔF508 at the plasma membrane. […] When HRP-tagged ΔF508-CFTR is present at the plasma membrane, the HRP enzyme activity can be measured. The amount of CFTR-ΔF508 that can be rescued to the plasma membrane is correlated with the amount of functional enzyme that can be measured. […]
Classification by EC50 | ranges: zone 1 = under 200 nM, zone 2 = from 200 nM up to 700 nM, zone 3 = 700 nM and over

# compound, targetDesc, assignedClass
data = [
    ("COCC1CCN(c2cc(C(=O)NS(=O)(=O)CCn3cccn3)nc3c2c(C2CCC2)nn3-c2ccccc2)CC1 [Compound 372]", "ΔF508-CFTR (Homo sapiens, UniProt P13569, DEL508-508)", "zone 3"),
    ("O=C(NS(=O)(=O)C1COC1)c1cc(N2CCC(N3CCOCC3)CC2)c2c(C3CCC3)nn(-c3ccc(F)cc3)c2n1 [Compound 506]", "ΔF508-CFTR (Homo sapiens, UniProt P13569, DEL508-508)", "zone 3"),
    ("CS(=O)(=O)NC(=O)c1cc(N2CC3(CCOCC3)C2)c2c(C3CCC3)nn(-c3ccccc3)c2n1 [Compound 204]", "ΔF508-CFTR (Homo sapiens, UniProt P13569, DEL508-508)", "zone 2"),
    ("COCCOCC1(F)CCN(c2cc(C(=O)NS(C)(=O)=O)nc3c2c(C2CCC2)nn3-c2ccccc2)CC1 [Compound 502]", "ΔF508-CFTR (Homo sapiens, UniProt P13569, DEL508-508)", "zone 1"),
    ("COc1ccc(-c2cc(C(=O)NS(C)(=O)=O)nc3c2c(C)nn3-c2ccc(C)c(Cl)c2)cc1 [Compound 18]", "ΔF508-CFTR (Homo sapiens, UniProt P13569, DEL508-508)", "zone 3"),
    ("CS(=O)(=O)NC(=O)c1cc(N2CCC(COCc3ccccc3)CC2)c2c(C3CCC3)nn(-c3ccccc3)c2n1 [Compound 213]", "ΔF508-CFTR (Homo sapiens, UniProt P13569, DEL508-508)", "zone 2"),
    ("COCC1CCN(c2cc(C(=O)N3CCCS3(=O)=O)nc3c2c(C2CCC2)nn3-c2ccccc2)CC1 [Compound 667]", "ΔF508-CFTR (Homo sapiens, UniProt P13569, DEL508-508)", "zone 1"),
    ("CS(=O)(=O)NC(=O)c1cc(C2CCN(CCC(F)(F)F)CC2)c2c(C3CCC3)nn(-c3ccc(F)cc3)c2n1 [Compound 603]", "ΔF508-CFTR (Homo sapiens, UniProt P13569, DEL508-508)", "zone 1"),
    ("CS(=O)(=O)NC(=O)c1cc(N2CCCC3(CC3)C2)c2c(C3CCC3)nn(-c3ccccc3)c2n1 [Compound 205]", "ΔF508-CFTR (Homo sapiens, UniProt P13569, DEL508-508)", "zone 3"),
    ("CC(C)c1nn(-c2ccc(F)cc2)c2nc(C(=O)NS(C)(=O)=O)cc(N3CCN(CC(F)(F)F)CC3)c12 [Compound 266]", "ΔF508-CFTR (Homo sapiens, UniProt P13569, DEL508-508)", "zone 2"),
    ("CC(C)c1nn(-c2ccc(F)cc2)c2nc(C(=O)NS(C)(=O)=O)cc(C3CCN(C(=O)OC(C)(C)C)CC3)c12 [Compound 378]", "ΔF508-CFTR (Homo sapiens, UniProt P13569, DEL508-508)", "zone 2"),
    ("CN(C)S(=O)(=O)NC(=O)c1cc(N2CCC(N3CCC(C#N)CC3)CC2)c2c(C3CCC3)nn(-c3ccc(F)cc3)c2n1 [Compound 522]", "ΔF508-CFTR (Homo sapiens, UniProt P13569, DEL508-508)", "zone 1"),
]
